- experimental.system: Nrg2 (UniProt P38082)
- Sequence: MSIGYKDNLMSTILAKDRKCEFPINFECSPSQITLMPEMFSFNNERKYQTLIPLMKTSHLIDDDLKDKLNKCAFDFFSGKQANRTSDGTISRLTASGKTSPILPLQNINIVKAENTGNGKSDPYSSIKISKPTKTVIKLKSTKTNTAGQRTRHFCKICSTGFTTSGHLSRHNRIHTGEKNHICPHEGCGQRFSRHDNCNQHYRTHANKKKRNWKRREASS
- assay.name: PBM E-score (8-mer binding enrichment) (E-score (-0.5 to 0.5)); higher = stronger / more preferred TF binding
- stated.conditions: protein concentration: 100 nM; construct: GST-full length
Over roughly 33,000 sequences, “E-score (-0.5 to 0.5)” has its median near -8e-05; the highest 2% begin near 0.23. Many of the other results were omitted from the sample, so the highest values are more common in it than they were.
Provide the recorded PBM E-score for the entries that follow.

Consider the worked cases shown below.
# construct.sequence, PBM E-score
records = [
    ("ACCCTCCT", -0.14),
    ("CCATGCCC", -0.111),
    ("ACACTATG", 0.0263),
]

Each sequence below has a recorded value; state its PBM E-score.
1. GGAAATCA
2. ACTTGGAG
3. GGACAAGA
4. AAATACAA
5. GGACAATA
6. CGAAATCC
7. CCGCGGGC
8. CAATACAG

Key:
-0.049
-0.108
0.159
0.0802
0.239
0.199
0.0924
0.125

Each sequence below has a recorded value; state its PBM E-score.
1. ACCCACCC
2. CAATTTCC
3. CAGCAACG
4. CGAAATCA
5. ATATTTCC

Key:
0.243
0.108
0.251
0.244
0.206

Each sequence below has a recorded value; state its PBM E-score.
1. CAGCAACA
2. ACCCTCCC
3. CTATTTCA

Key:
1: 0.159; 2: 0.255; 3: 0.164

Each sequence below has a recorded value; state its PBM E-score.
1. CCCACCCA
2. CGGCGCCG
3. CGACAATC
4. GTAAATCA
5. AGTATTTA
6. CGGCGCGA
7. CAGAGTAC

Key:
[0.0597, 0.25, 0.009, 0.24, 0.0065, 0.121, -0.112]
